assay: Glutathione reactivity of the compound at 20 uM after 2 hrs by UPLC analysis
Active and inactive are the calls of the source. The calls are words filed in the database; no cut-off is given here.
A correct response names exactly one class from active, inactive

See these solved cases before continuing.
COc1ccc(Cn2cc(-c3cc(C(F)(F)F)nc(S(=O)(=O)CCCC(=O)NC45CC6CC(CC(C6)C4)C5)n3)ccc2=O)cc1OC; active
Cc1cc(-c2cccs2)nc(S(C)(=O)=O)n1; inactive
CS(=O)(=O)c1nc(-c2cccs2)cc(C(F)(F)F)n1; active

Below: the item to evaluate.
## Task Kindly provide the recorded test outcome for the following compound: `COc1ccc(Cn2cc(-c3cc(C(F)(F)F)nc(S(C)(=O)=O)n3)ccc2=O)cc1OC`
## Result active

// data source = ChEMBL document CHEMBL3992567
